tested on: 324938-238-R-J1-PDC complex spheroid growth, % test/control; assay: Anticancer human tumor 324938-238-R-J1-PDC patient-derived bladder carcinoma cell line growth inhibition [AhR]; conditions: second compound 10 µM; first compound 1 µM; stronger effect = lower value
Would you kindly list viability, T/C for each of these molecules?
Give bare numbers, in %.

The examples below pair each entry with its known result.
molecule="O=C(C=Cc1cccc(S(=O)(=O)Nc2ccccc2)c1)NO + Cc1cncc(-c2nc(NCCc3c[nH]c4ccccc34)c3ncn(C(C)C)c3n2)c1" measured_endpoint="viability, T/C" unit_abbreviation=% recorded_measurement=63
molecule="Nc1ccn(C2OC(CO)C(O)C2(F)F)c(=O)n1 (centres undefined) + Cc1ccccc1N=Nc1ccc(NC(=O)c2ccnn2C)c(C)c1" measured_endpoint="viability, T/C" unit_abbreviation=% recorded_measurement=14.3
molecule="CC1COCCN1c1cc(-c2ccnn2C)c2ccnc(-c3ccn[nH]3)c2n1 (centres undefined) + Cc1ccccc1N=Nc1ccc(NC(=O)c2ccnn2C)c(C)c1" measured_endpoint="viability, T/C" unit_abbreviation=% recorded_measurement=35

Okay, now this molecule:
Which viability, T/C value is on record for CC1COCCN1c1cc(C2(S(C)(=N)=O)CC2)nc(-c2ccnc3[nH]ccc23)n1 (centres undefined) + CC(CO)NC(=O)c1cc(-c2ccc(Cl)cc2)nn(-c2cnn(C)c2)c1=O ? 47.3

---

Tested on: 324938-238-R-J1-PDC complex spheroid growth, % test/control
Assay: Anticancer human tumor 324938-238-R-J1-PDC cell line growth inhibition [AhR];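 further: spheroids exposed to agents for seven days before viability read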
Settings: second compound 0.1 µM; first compound 0.003 µM; stronger effect = lower value
Text: Multicellular complex tumor spheroid response to aryl hydrocarbon receptor antagonists in combination with a variety of drugs and investigational agents in selected tumor cell lines […] Compounds. […] If the clinical Cmax for an agent had not been determined, the highest concentration tested was 10 microM (Table 1). […]
measured endpoint: viability, T/C (%)
Numbers only, in %.

# annotated cases, reported viability, T/C shown
compound="CC(C)CC(NC(=O)C(Cc1ccccc1)NC(=O)c1cnccn1)B(O)O (centres undefined) + Cc1cncc(-c2nc(NCCc3c[nH]c4ccccc34)c3ncn(C(C)C)c3n2)c1" measured_endpoint="viability, T/C" recorded_measurement=82.9
compound="Nc1ncn(C2CC(O)C(CO)S2)c(=O)n1 (centres undefined) + CC(CO)NC(=O)c1cc(-c2ccc(Cl)cc2)nn(-c2cnn(C)c2)c1=O" measured_endpoint="viability, T/C" recorded_measurement=93.2
compound="CCc1c2c(nc3ccc(O)cc13)-c1cc3c(c(=O)n1C2)COC(=O)[C@]3(O)CC + Cc1ccccc1N=Nc1ccc(NC(=O)c2ccnn2C)c(C)c1" measured_endpoint="viability, T/C" recorded_measurement=52

Batch of 3 compounds: report viability, T/C for each.
1. CCc1c2c(nc3ccc(O)cc13)-c1cc3c(c(=O)n1C2)COC(=O)[C@]3(O)CC + CC(CO)NC(=O)c1cc(-c2ccc(Cl)cc2)nn(-c2cnn(C)c2)c1=O
2. CCc1c2c(nc3ccc(O)cc13)-c1cc3c(c(=O)n1C2)COC(=O)[C@]3(O)CC + Cc1cncc(-c2nc(NCCc3c[nH]c4ccccc34)c3ncn(C(C)C)c3n2)c1
3. CC(C)CC(NC(=O)C(Cc1ccccc1)NC(=O)c1cnccn1)B(O)O (centres undefined) + CC(CO)NC(=O)c1cc(-c2ccc(Cl)cc2)nn(-c2cnn(C)c2)c1=O

1: 28.7; 2: 71.7; 3: 18.1

For the 3 compounds below, give their viability, T/C values.
1. CC(C)CC(NC(=O)C(Cc1ccccc1)NC(=O)c1cnccn1)B(O)O (centres undefined) + Cc1ccccc1N=Nc1ccc(NC(=O)c2ccnn2C)c(C)c1
2. Nc1ncn(C2CC(O)C(CO)S2)c(=O)n1 (centres undefined) + Cc1cncc(-c2nc(NCCc3c[nH]c4ccccc34)c3ncn(C(C)C)c3n2)c1
3. Nc1ncn(C2CC(O)C(CO)S2)c(=O)n1 (centres undefined) + Cc1ccccc1N=Nc1ccc(NC(=O)c2ccnn2C)c(C)c1

94.3
113
95.4
